Assay: qHTS assay to identify small molecule agonists of the vitamin D receptor (VDR) signaling pathway - cell viability counter screen (AID 743224); also: nearly all actives have a fitted effect of over 50% in size; also: potency is read from the fitted curve at half-maximal effect
Conditions: VDR-bla HEK293T viability, CellTiter-Glo luminescence, 16 h; series mostly up to 62.6 µM
Text: U.S. Tox21 Program National Center for Advancing Translational Sciences [NCATS] NIH Chemical Genomics Center [NCGC] U.S. Environmental Protection Agency [EPA] National Institutes of Environmental Health Sciences [NIEHS] National Toxicology Program [NTP] U.S. Food and Drug Administration [FDA] Tox21 Assay Overview: The vitamin D receptor (VDR), a member of nuclear hormone receptor superfamily, plays a critical role in calcium homeostasis and bone metabolism. […]
Results filed as inconclusive are left out. The source made the active and inactive calls. Calls follow the shape of the dose curve; as a rule, active = well fitted cell-killing curve with a large enough effect in the repeat runs; inconclusive = weak or mixed curves, or effect the other way; inactive = no such curve, though single readings can be large or run the other way.
reported_endpoint: Potency

>>> result("CC(C)=CCC/C(C)=C/CC/C(C)=C/CO")
"49 µM (active)"
>>> result("CC(=O)NO")
"inactive"
>>> result("COc1cc(C(=O)OCCCN2CCCN(CCCOC(=O)c3cc(OC)c(OC)c(OC)c3)CC2)cc(OC)c1OC")
"inactive"
